Data provenance is patent EP0900211B1.

Record type: Ki measurement. Applies to: Stromelysin (Homo sapiens, UniProt P08254)
PARAMETER MEASURED: Ki (nM)

Example entries begin here.
[
  {
    "SMILES STRING": "COC(=O)[C@H](COCc1ccccc1)NC(=O)Nc1n[nH]c(=S)s1",
    "SCALE UNIT": "nM",
    "Ki": 2390
  },
  {
    "SMILES STRING": "COC(=O)[C@H](CSCc1ccc(OC)cc1)NC(=O)Nc1n[nH]c(=S)s1",
    "SCALE UNIT": "nM",
    "Ki": 2050
  },
  {
    "SMILES STRING": "CNC(=O)[C@H](CSCc1ccc(C)cc1)NC(=O)Nc1n[nH]c(=S)s1",
    "SCALE UNIT": "nM",
    "Ki": 1200
  },
  {
    "SMILES STRING": "O=C(Nc1n[nH]c(=S)s1)N[C@@H](Cc1ccccc1)C(=O)NCCN1CCOCC1",
    "SCALE UNIT": "nM",
    "Ki": 1990
  }
]

(A) O=C(Nc1n[nH]c(=S)s1)N[C@@H](Cc1ccccc1)C(=O)NCc1cccnc1
(B) CNC(=O)[C@H](Cc1ccc(-c2ccccc2)cc1)NC(=O)Nc1n[nH]c(=S)s1
(C) O=C(Nc1n[nH]c(=S)s1)N[C@@H](Cc1ccccc1)C(=O)NCCCc1ccccc1
(D) O=C(Nc1n[nH]c(=S)s1)N[C@@H](Cc1ccccc1)C(=O)N1CCN(C(c2ccccc2)c2ccccc2)CC1
Query: Sort these compounds on Ki so the largest reading comes first. Answer format: the labels, ordered as requested.
Response: B, D, A, C
(B: 7390 nM, D: 4250 nM, A: 2010 nM, C: 1020 nM)

(P) COC(=O)[C@H](CSCc1ccc(C)cc1)NC(=O)Nc1n[nH]c(=S)s1
(Q) O=C(Nc1n[nH]c(=S)s1)N[C@@H](Cc1ccccc1)C(=O)NCc1ccc2c(c1)OCO2
(R) O=C(Nc1n[nH]c(=S)s1)N[C@@H](Cc1ccccc1)C(=O)NCc1nc2ccccc2[nH]1
Query: Rank ascending by Ki. Answer format: the labels, ordered as requested.
Response: R, Q, P
(R: 640 nM, Q: 1000 nM, P: 2550 nM)

(A) COC(=O)[C@H](Cc1ccc([N+](=O)[O-])cc1)NC(=O)Nc1n[nH]c(=S)s1
(B) O=C(Nc1n[nH]c(=S)s1)N[C@@H](Cc1ccccc1)C(=O)NCc1ccc(C(F)(F)F)cc1
Query: Return label of the item with the larger Ki. Candidates: A , B . Respond with the label that goes with your answer.
Response: A
(A: 1870 nM, B: 750 nM)

###

TARGET SYSTEM: Stromelysin (Homo sapiens, UniProt P08254)
Sequence (P08254 100-477): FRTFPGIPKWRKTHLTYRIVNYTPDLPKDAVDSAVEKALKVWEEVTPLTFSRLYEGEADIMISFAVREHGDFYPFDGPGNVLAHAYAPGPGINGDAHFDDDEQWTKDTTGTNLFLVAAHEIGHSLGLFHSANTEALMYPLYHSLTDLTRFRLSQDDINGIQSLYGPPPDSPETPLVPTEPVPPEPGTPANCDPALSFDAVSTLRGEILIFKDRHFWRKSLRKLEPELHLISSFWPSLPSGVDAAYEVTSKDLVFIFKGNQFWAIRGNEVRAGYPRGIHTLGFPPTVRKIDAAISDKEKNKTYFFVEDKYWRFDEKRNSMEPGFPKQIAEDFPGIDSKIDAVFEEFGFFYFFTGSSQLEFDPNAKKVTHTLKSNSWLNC
// values below are reported pKi
Please treat pKi as minus the base-10 logarithm of the molar concentration.

Query: Name the recorded pKi of the item COC(=O)[C@H](Cc1ccc(O[Si](C)(C)C(C)(C)C)cc1)NC(=O)Nc1n[nH]c(=S)s1 in your answer.
Response: 5.20

Query: Name the recorded pKi of the item COC(=O)[C@@H](NC(=O)Nc1n[nH]c(=S)s1)[C@@H](C)OC(C)(C)C in your answer.
Response: 5.73

Query: Name the recorded pKi of the item CNC(=O)CCNC(=O)[C@H](Cc1ccccc1)NC(=O)Nc1n[nH]c(=S)s1 in your answer.
Response: 5.87
